Molecular target: T1, recombinant human BCMA (ELISA antigen, construct not specified) (human, UniProt Q02223 1-54)
T1 construct: Fc 1-51; Fc/His 1-51; Fc 4-48) was coated in these ELISAs; also called recombinant BCMA; recombinant protein
T1 sequence: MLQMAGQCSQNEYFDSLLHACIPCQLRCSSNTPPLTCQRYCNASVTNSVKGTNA
Assay: ELISA on coated recombinant human BCMA, antibody titrated, HRP anti-Fab detection, absorbance 450 nm
property measured: EC50 (read off the curve)

Task: State its EC50 (read off the curve): anti-BCMA IgG antibody 2F8 (antibody, V domains shown) VH: EVQLLESGGGLVQPGGSLRLSCAASGFTFSNYGMSWVRQAPGKGLEWVSEIIPIFDTSNYAQKFQGRFTISRDNSKNTLYLQMNSLRAEDTAVYYCAKIPGNRHDYWGQGTLVTVSS VL: QSVLTQPPSASGTPGQRVTISCTRMQRQSDWYQQLPGTAPKLLIYDNNKRPLGVPDRFSGSKSGTSASLAISGLRSEDEADYYCQSYDSNAYVVFGGGTKLTVLG
Result: ~0.07 µg/mL
